Biological target: DNA polymerase alpha catalytic subunit (Homo sapiens, UniProt P09884)
Sequence (P09884 whole entry): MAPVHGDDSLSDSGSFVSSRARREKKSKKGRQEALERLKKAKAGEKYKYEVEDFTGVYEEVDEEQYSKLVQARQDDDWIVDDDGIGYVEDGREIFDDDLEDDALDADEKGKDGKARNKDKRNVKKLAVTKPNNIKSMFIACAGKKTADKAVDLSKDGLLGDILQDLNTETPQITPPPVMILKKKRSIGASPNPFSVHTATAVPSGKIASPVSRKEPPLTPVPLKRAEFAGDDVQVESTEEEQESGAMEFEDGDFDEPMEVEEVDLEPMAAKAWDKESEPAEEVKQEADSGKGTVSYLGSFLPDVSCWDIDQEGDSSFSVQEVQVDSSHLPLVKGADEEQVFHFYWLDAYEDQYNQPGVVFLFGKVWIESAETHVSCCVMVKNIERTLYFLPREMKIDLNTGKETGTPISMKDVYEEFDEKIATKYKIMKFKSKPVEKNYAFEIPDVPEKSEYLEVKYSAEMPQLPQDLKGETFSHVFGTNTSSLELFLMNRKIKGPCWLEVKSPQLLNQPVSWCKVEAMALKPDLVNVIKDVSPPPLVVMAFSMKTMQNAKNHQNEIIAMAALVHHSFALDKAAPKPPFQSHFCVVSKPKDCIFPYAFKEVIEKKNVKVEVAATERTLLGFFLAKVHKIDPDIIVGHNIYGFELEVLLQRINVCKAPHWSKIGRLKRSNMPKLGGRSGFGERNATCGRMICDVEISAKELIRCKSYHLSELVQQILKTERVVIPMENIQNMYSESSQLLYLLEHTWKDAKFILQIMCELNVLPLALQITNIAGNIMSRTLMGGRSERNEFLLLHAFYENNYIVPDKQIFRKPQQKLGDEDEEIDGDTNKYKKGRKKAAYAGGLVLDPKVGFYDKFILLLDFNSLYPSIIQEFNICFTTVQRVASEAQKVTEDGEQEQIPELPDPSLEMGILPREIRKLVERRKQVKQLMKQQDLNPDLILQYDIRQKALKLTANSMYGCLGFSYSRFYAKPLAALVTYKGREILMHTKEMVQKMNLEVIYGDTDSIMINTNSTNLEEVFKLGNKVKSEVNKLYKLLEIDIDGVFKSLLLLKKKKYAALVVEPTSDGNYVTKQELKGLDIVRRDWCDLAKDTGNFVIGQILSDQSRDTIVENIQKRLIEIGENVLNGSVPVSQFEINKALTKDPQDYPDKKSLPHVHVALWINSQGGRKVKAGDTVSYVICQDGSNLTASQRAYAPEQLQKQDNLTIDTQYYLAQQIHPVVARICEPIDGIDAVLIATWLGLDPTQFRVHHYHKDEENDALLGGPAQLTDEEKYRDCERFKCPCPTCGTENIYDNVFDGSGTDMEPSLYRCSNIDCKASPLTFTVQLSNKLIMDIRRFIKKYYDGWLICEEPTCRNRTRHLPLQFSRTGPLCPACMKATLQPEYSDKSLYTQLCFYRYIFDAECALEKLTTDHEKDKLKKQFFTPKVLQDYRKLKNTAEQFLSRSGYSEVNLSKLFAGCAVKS
Test: Inhibition of recombinant human DNA polymerase alpha preincubated with enzyme followed by addition of dATP/dGTP/TTP as substrate in presence of […] by phosphorimaging assay
measurement.label: IC50

DNA polymerase alpha catalytic subunit (Homo sapiens, UniProt P09884) assay, compound N#C[C@@]1(c2ccc3c(N)ncnn23)O[C@H](COP(=O)(O)OP(=O)(O)OP(=O)(O)O)[C@@H](O)[C@H]1O , recorded IC50 = > 200 µM

###

Experiment: Cytotoxicity against human Hep2 cells assessed as reduction in cell viability after 4 to 5 days by Cell-Titer Glo assay
Assay type: cell-based, HEp-2
Conditions: HEp-2 cells
Some molecules, each annotated with its measured CC50.

Study these solved cases before continuing.
N#C[C@@]1(n2ccc(N)nc2=O)O[C@H](CO)[C@@H](O)[C@H]1O :: > 100 µM
C[C@@]1(c2ccc3c(N)ncnn23)O[C@H](CO)[C@@H](O)[C@H]1O :: 93 µM
N#C[C@@]1(c2ccc3c(N)ncnn23)O[C@H](CO)[C@@H](O)[C@H]1O :: > 100 µM
C[C@@]1(O)[C@H](O)[C@@H](CO)O[C@@]1(C#N)c1ccc2c(N)ncnn12 :: > 100 µM

# input for lookup
The molecule listed as C#C[C@@]1(c2ccc3c(N)ncnn23)O[C@H](COP(=O)(N[C@@H](C)C(=O)OCC(CC)CC)Oc2ccccc2)[C@@H](O)[C@H]1O (stereo not given in full) shows CC50 equal to > 100 µM
